- ASSAY TARGET: Recombinant STAT6 protein (STAT6 (W123-T658)) (Homo sapiens, UniProt P42226)
- Construct: Recombinant STAT6 protein (STAT6 (W123-T658))
- TEST: STAT6 Fluorescence Polarization (FP) Assay
- Type: binding
- ASSAY CONTEXT: STAT6 (W123-T658) 250 nM, probe 5-FAM-Ap[…]-NH2 2 nM, 45-minute incubation; read-out: STAT6 (FP assay IC50 class)
pIC50: −log10 of the molar value.
In this section, each of the compounds is paired with its reported pIC50.
MEASUREMENT TYPE: pIC50

>>> value("N#C[C@H]1[C@H](c2ccccc2)CN(C(=O)[C@@H]2CC[C@@H]3CCCC[C@H](NC(=O)c4cc5cc([C@H](F)P(=O)(O)O)ccc5s4)C(=O)N32)C12CC2 (single isomer, unassigned) [Compound 924]")
"≥ 6.52"
>>> value("O=C(N[C@H]1CCC[C@H]2CC[C@@H](C(=O)N3CC(c4cccnc4)C3)N2C1=O)c1cc2cc(CP(=O)(O)O)ncc2s1 [Compound 574]")
"4.52 to 5.52"
>>> value("COc1ccncc1C1CN(C(=O)[C@@H]2CC[C@@H]3CCC[C@H](NC(=O)c4cc5cc([C@H](F)P(=O)(O)O)ccc5s4)C(=O)N32)C1 (single isomer, unassigned) [Compound 747]")
"4.52 to 5.52"
>>> value("O=C(N[C@H]1CCC[C@H]2CC[C@@H](C(=O)N3CC(c4ccccc4O)C3)N2C1=O)c1cc2cc(C(F)P(=O)(O)O)ccc2s1 (stereo partly shown) [Compound 608]")
"5.52 to 6.52"
>>> value("O=C(N[C@H]1CCC[C@H]2CC[C@@H](C(=O)N3CCC(c4ccncn4)CC3)N2C1=O)c1cc2cc(C(F)P(=O)(O)O)ccc2s1 (stereo partly shown) [Compound 604]")
"4.52 to 5.52"
>>> value("Cn1cc(F)c(N2C(=O)N(C(=O)[C@@H]3CC[C@@H]4CCCC[C@H](NC(=O)c5cc6cc(C(F)P(=O)(O)O)ccc6s5)C(=O)N43)C3(CC3)C2=O)cc1=O (stereo partly shown) [Compound 581]")
"5.52 to 6.52"
>>> value("CN(C)C(=O)N1CC[C@@H](NC(=O)[C@@H]2CC[C@@H]3CCCC[C@H](NC(=O)c4cc5cc(C(F)P(=O)(O)O)ccc5s4)C(=O)N32)C1 (stereo partly shown) [Compound 529]")
"4.52 to 5.52"
>>> value("O=C(N[C@H]1CCC[C@H]2CC[C@@H](C(=O)N3CC(c4cncnc4N4CCOCC4)C3)N2C1=O)c1cc2cc([C@@H](F)P(=O)(O)O)ccc2s1 (single isomer, unassigned) [Compound 861]")
"4.52 to 5.52"
>>> value("O=C(N[C@H]1CCC[C@H]2CC[C@@H](C(=O)N3CC(c4cnccc4N4CCOCC4)C3)N2C1=O)c1cc2cc(CP(=O)(O)O)ccc2s1 [Compound 750]")
"4.52 to 5.52"
>>> value("COc1ccn(C2CN(C(=O)[C@@H]3CC[C@@H]4CCC[C@H](NC(=O)c5cc6cc(C(F)P(=O)(O)O)ccc6s5)C(=O)N43)C2)n1 (stereo partly shown) [Compound 633]")
"4.52 to 5.52"

* * *

Known IC50 of a selection of molecules
- ASSAY TARGET: Recombinant STAT6 protein (STAT6 (W123-T658)) (Homo sapiens)
- Construct: Recombinant STAT6 protein (STAT6 (W123-T658))
- Sequence (P42226 123-658): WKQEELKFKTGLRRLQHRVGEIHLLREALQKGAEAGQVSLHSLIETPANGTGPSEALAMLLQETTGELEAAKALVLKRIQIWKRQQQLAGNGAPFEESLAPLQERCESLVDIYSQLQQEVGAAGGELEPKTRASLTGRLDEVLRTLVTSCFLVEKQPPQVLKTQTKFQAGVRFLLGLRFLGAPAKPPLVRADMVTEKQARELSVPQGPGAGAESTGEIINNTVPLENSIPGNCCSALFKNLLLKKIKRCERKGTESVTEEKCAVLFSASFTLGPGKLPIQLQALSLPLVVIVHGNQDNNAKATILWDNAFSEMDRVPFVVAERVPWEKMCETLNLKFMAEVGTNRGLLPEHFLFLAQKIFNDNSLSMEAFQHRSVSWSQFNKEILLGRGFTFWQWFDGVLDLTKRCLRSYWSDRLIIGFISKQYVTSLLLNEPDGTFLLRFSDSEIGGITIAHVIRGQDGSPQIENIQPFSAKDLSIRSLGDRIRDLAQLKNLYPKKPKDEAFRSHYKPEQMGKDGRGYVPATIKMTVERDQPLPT
- TEST: STAT6 Fluorescence Polarization (FP) Assay
- Assay type: binding
- ASSAY CONTEXT: STAT6 (W123-T658) 250 nM, probe 5-FAM-Ap[…]-NH2 2 nM, 45-minute incubation; read-out: STAT6 (FP assay IC50 class)
MEASUREMENT TYPE: IC50

>>> value("Cc1ccc(C#N)nc1C1CN(C(=O)[C@@H]2CC[C@@H]3CCC[C@H](NC(=O)c4cc5cc(C(F)(F)P(=O)(O)O)ccc5s4)C(=O)N32)C1")
"3 to 30 µM"
>>> value("O=C(N[C@H]1CCC[C@H]2CC[C@@H](C(=O)N3CC(c4cnccc4N4C[C@@H]5C[C@H]4CO5)C3)N2C1=O)c1cc2cc(C(F)P(=O)(O)O)ccc2s1 (some centres unmarked)")
"3 to 30 µM"
>>> value("O=C(N[C@H]1CCC[C@H]2CC[C@@H](C(=O)N3CC(c4cscc4F)C3)N2C1=O)c1cc2cc(C(F)P(=O)(O)O)ccc2s1 (some centres unmarked)")
"3 to 30 µM"
>>> value("CC[C@@H]1CC[C@H](NC(=O)c2cc3cc([C@H](F)P(=O)(O)O)ccc3s2)C(=O)N2[C@H](CC[C@H]2C(=O)N2CC(c3cnccc3N3CCC3)C2)C1")
"0.3 to 3 µM"
>>> value("COC1CN(c2ccncc2C2CN(C(=O)[C@@H]3CC[C@@H]4CCC[C@H](NC(=O)c5cc6cc([C@@H](F)P(=O)(O)O)ccc6s5)C(=O)N43)C2)C1")
"0.3 to 3 µM"
>>> value("O=C(N[C@H]1CCCC[C@H]2CC[C@@H](C(=O)N3CC(c4cnccc4-c4ccccc4)C3)N2C1=O)c1cc2cc(C(F)(F)P(=O)(O)O)ccc2s1")
"0.3 to 3 µM"
>>> value("O=C(N[C@H]1CCCC[C@H]2CC[C@@H](C(=O)N3C[C@@H](c4cccnc4)CC34CC4)N2C1=O)c1cc2cc(CP(=O)(O)O)ccc2s1")
"0.3 to 3 µM"
>>> value("O=C(N[C@H]1CCCC[C@H]2CC[C@@H](C(=O)N3CCC(c4ccncn4)CC3)N2C1=O)c1cc2cc(C(F)P(=O)(O)O)ccc2s1 (some centres unmarked)")
"3 to 30 µM"
>>> value("O=C(N[C@H]1CCC[C@H]2CC[C@@H](C(=O)N3CC(C4=CCOCC4)C3)N2C1=O)c1cc2cc(CP(=O)(O)O)ccc2s1")
"3 to 30 µM"
>>> value("N#Cc1cnc(C2CN(C(=O)[C@@H]3CC[C@@H]4CCCC[C@H](NC(=O)c5cc6cc(C(F)(F)P(=O)(O)O)ccc6s5)C(=O)N43)C2)nc1")
"3 to 30 µM"
>>> value("Cc1ccncc1C1CN(C(=O)[C@@H]2CC[C@@H]3CCC[C@H](NC(=O)c4cc5cc([C@H](F)P(=O)(O)O)ccc5s4)C(=O)N32)C1 (single isomer, unassigned)")
"3 to 30 µM"

* * *

- ASSAY TARGET: pY641-STAT6 in PBMC (Homo sapiens)
- Construct: Cryopreserved Peripheral Blood Mononuclear Cells (PBMC) are from AllCells; host or cells: cryopreserved PBMC
- TEST: MSD-pSTAT-PBMC Assay (pSTAT6, IL-4 stimulated)
- Format: cell-based
- ASSAY CONTEXT: PBMC, compound 3 hrs, then 1 ng/mL IL-4 for 10 min; Table 115; read-out: STAT6
- Protocol: Cryopreserved Peripheral Blood Mononuclear Cells (PBMC) are from AllCells. Recombinant Human IL-4 and IL-6 are from Peprotech. […] Cyropreserved PBMCs were thawed out and allowed to recover overnight in IMDM+10% heat-inactivated FBS prior to plating 50,000 (STAT3) or 25,000 (STAT6) cells per well in 96-well U-bottom tissue culture plates. […] Assay plates were then washed and 150 μL of 1× Read Buffer-T (MSD) was added to each well prior to reading on an SQ120 MSD Plate Reader. […]
pIC50: −log10 of the molar value.
Attribute: pIC50
MEASUREMENT TYPE: pIC50

>>> value("CC(C)CC(=O)SCCOP(=O)(OCCSC(=O)CC(C)C)[C@@H](F)c1ccc2sc(C(=O)N[C@H]3CCCC[C@H]4CC[C@@H](C(=O)N5C[C@@H](C#N)[C@H](c6cc[nH]c(=O)c6)C5)N4C3=O)cc2c1 (single isomer, unassigned) [Compound 1090]")
"6.00 to 7.00"
>>> value("CC(C)CC(=O)SCCOP(=O)(OCOC(=O)O[C@@H]1CCOC1)C(F)(F)c1ccc2sc(C(=O)N[C@H]3CCCC[C@H]4CC[C@@H](C(=O)N5C[C@H](c6cc[nH]c(=O)c6)[C@@H](C#N)C5)N4C3=O)cc2c1 (single isomer, unassigned) [Compound 1094]")
"6.00 to 7.00"
>>> value("CC(C)C(=O)SCCOP(=O)(OCCSC(=O)C(C)C)C(F)(F)c1ccc2sc(C(=O)N[C@H]3CCC[C@H]4CC[C@@H](C(=O)N5CC(c6cccnc6)C5)N4C3=O)cc2c1 [Compound 1009]")
"6.00 to 7.00"
>>> value("CC(C)CC(=O)SCCOP(=O)(OCCSC(=O)CC(C)C)C(F)(F)c1ccc2sc(C(=O)N[C@H]3CCC[C@H]4CC[C@@H](C(=O)N5CC(c6ncccn6)C5)N4C3=O)cc2c1 [Compound 961]")
"5.52 to 6.00"
